- Measured target: BCL-XL (Homo sapiens, UniProt Q07817)
- Construct: endogenous in cells; host or cells: MOLT-4
- Sequence (Q07817 whole entry): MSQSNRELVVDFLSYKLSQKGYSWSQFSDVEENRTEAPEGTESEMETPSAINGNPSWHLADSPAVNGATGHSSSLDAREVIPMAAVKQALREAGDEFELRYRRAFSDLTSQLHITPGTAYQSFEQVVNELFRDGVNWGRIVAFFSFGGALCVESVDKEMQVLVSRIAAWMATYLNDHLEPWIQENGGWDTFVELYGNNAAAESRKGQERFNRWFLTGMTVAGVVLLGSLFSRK
- Assay protocol: BCL-XL degradation assay, western blot in MOLT-4 cells, 16 h
- Type: cell-based
- Study conditions: western blot, MOLT-4 cells, 16 h; read-out: Bcl-xL WB in MOLT-4 degradation 16 h: Mean external-Abs DC50
Measured DC50, listed per entry.

Task item: Which DC50 reading was recorded for the molecule Cc1ncsc1-c1ccc(CNC(=O)[C@@H]2C[C@@H](O)CN2C(=O)[C@@H](NC(=O)C2(F)CC2)C(C)(C)C)c(OCCN2CCC(CS(=O)(=O)NC(=O)c3nc(N4CCc5cccc(C(=O)Nc6nc7ccccc7s6)c5C4)ccc3-c3cnn(CC4CCCCC4)c3C)CC2)c1 ?
Reply: 0.01 to 0.1 µM

Task item: Here is the next molecule: Cc1cc(N(CCN(C)C(=O)CCCCCCCCC(=O)N[C@H](C(=O)N2C[C@H](O)C[C@H]2C(=O)N[C@@H](C)c2ccc(-c3scnc3C)cc2)C(C)(C)C)c2ccc(-c3cnn(CC4CCCCC4)c3C)c(C(=O)O)n2)nnc1Nc1nc2ccccc2s1
Reply: > 1 µM
